experimental system: human Mer (Homo sapiens, UniProt Q12866)
Construct: GST (N)
Sequence (Q12866 578-872): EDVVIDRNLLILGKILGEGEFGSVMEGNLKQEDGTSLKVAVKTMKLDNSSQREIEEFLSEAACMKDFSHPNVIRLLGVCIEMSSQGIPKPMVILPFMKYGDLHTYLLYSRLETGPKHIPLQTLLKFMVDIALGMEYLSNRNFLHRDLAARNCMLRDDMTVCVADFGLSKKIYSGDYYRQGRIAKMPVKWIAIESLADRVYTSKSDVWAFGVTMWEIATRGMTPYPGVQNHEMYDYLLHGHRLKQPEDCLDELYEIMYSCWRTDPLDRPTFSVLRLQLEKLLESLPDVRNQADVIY
assay comment: Kinase enzymatic activity assay (33P-radiolabeled phosphate transfer), Mer
experimental context: recombinant human Mer (578-872), poly(4:1 glu:tyr) substrate, 30 minutes
Each record here notes measured IC50.
measurement type: IC50

>>> result("CN(C)CCCN(C)c1cc(OC2CCOCC2)c2c(Nc3nc(C(F)(F)F)cs3)ncnc2c1")
"> 10000 nM"
>>> result("COCCN1CCN(c2cc(OC3CCOCC3)c3c(Oc4ccc(F)cc4Cl)ncnc3c2)CC1")
"500 to 1000 nM"
>>> result("FC(F)(F)c1nnc(Nc2ncnc3cc(OCCCN4CCOCC4)cc(OC4CCOCC4)c23)s1")
"> 10000 nM"
>>> result("CC(C)Oc1ncnc2cc(OCC3CCN(C)CC3)cc(OC3CCOCC3)c12")
"< 500 nM"
>>> result("c1csc(Nc2ncnc3cc(OCCCN4CCOCC4)cc(OC4CCOCC4)c23)n1")
"< 500 nM"
>>> result("CN1CCC(COc2cc(OC3CCOCC3)c3c(Oc4ccc(F)cc4Cl)ncnc3c2)CC1")
"< 500 nM"
>>> result("Fc1ccc(Oc2ncnc3cc(OCCN4CCCCC4)cc(OC4CCOCC4)c23)c(Cl)c1")
"< 500 nM"
>>> result("CN1CCN(CCOc2cc(OC3CCOCC3)c3c(Sc4ccc(F)cc4Cl)ncnc3c2)CC1")
"1000 to 10000 nM"

----------
Each record here notes measured IC50.
experimental system: human Axl (Homo sapiens)
Construct: GST (N)
Sequence (P30530 473-894 limits assumed): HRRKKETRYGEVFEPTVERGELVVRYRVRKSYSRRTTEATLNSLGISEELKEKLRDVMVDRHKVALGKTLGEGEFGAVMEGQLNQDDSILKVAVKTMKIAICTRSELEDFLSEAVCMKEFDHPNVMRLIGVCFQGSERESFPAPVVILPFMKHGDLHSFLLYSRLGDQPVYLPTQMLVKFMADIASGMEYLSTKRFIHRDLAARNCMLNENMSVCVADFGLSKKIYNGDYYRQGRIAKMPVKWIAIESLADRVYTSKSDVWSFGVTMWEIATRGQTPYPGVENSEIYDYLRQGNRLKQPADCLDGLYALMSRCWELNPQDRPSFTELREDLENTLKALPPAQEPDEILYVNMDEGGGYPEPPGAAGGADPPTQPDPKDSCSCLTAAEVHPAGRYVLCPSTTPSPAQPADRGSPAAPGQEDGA
assay comment: Kinase enzymatic activity assay (33P-radiolabeled phosphate transfer), Axl
experimental context: recombinant human Axl (473-end), poly(4:1 glu:tyr) substrate, 30 minutes
measurement type: IC50

>>> result("COC(=O)Cc1cccc(Oc2ncnc3cc(OCCCN4CCOCC4)cc(OC)c23)c1")
"> 10 µM"
>>> result("COCCOc1cc(OCCN2CCN(C)CC2)cc2ncnc(Sc3ccc(F)cc3)c12")
"> 10 µM"
>>> result("FC(F)(F)c1csc(Nc2ncnc3cc(OCCN4CCOCC4)cc(OC4CCOCC4)c23)n1")
"1 to 10 µM"
>>> result("CN1CCC(COc2cc(OC3CCOCC3)c3c(Sc4nncs4)ncnc3c2)CC1")
"< 0.5 µM"
>>> result("COC(=O)c1cccc(Oc2ncnc3cc(OCCN4CCN(C)CC4)cc(OC4CCOCC4)c23)c1")
"1 to 10 µM"
>>> result("CN1CCC(COc2cc(OC3CCOCC3)c3c(Nc4nnc(C(F)(F)F)s4)ncnc3c2)CC1")
"1 to 10 µM"
>>> result("COCCN(C)CCOc1cc(OC2CCOCC2)c2c(Oc3ccc(F)cc3Cl)ncnc2c1")
"> 10 µM"
>>> result("Cc1nnc(Nc2ncnc3cc(OCC4CCN(C)CC4)cc(OC4CCOCC4)c23)s1")
"1 to 10 µM"

----------
Each record here notes measured IC50.
experimental system: human Tyro3 (Homo sapiens, UniProt Q06418)
Construct: GST (N)
Sequence (Q06418 455-890 limits assumed): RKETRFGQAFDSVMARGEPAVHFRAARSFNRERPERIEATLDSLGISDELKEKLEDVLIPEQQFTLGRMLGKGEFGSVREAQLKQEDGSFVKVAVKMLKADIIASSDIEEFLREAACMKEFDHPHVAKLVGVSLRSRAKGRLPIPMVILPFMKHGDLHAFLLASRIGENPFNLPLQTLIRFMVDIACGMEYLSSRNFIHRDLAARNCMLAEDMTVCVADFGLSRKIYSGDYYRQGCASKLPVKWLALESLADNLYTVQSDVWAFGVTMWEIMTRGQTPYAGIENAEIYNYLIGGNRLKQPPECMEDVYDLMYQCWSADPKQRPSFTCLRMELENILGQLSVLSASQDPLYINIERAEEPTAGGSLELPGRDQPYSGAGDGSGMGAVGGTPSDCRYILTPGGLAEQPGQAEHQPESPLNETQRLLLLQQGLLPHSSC
assay comment: Kinase enzymatic activity assay (33P-radiolabeled phosphate transfer), Tyro3
experimental context: recombinant human Tyro3 (455-end), poly(4:1 glu:tyr) substrate, 30 minutes
measurement type: IC50

>>> result("CN(C)CCCOc1cc(OC2CCOCC2)c2c(Oc3ccc(F)cc3Cl)ncnc2c1 [Example 2.62]")
"< 500 nM"
>>> result("CN(C)CCN(C)CCOc1cc(OC2CCOCC2)c2c(Oc3ccc(F)cc3Cl)ncnc2c1 [Example 2.15]")
"500 to 1000 nM"
>>> result("COc1cc(OCCCN2CCOCC2)cc2ncnc(Oc3cccc(C(=O)NCc4ccccc4)c3)c12 [Example 2.28]")
"> 10000 nM"
>>> result("CN1CCN(CCOc2cc(OC3CCOCC3)c3c(Oc4cccc(C(=O)NCc5ccccc5)c4)ncnc3c2)CC1 [Example 2.32]")
"> 10000 nM"
>>> result("CN1CCN(CCOc2cc(OC3CCOCC3)c3c(Oc4cccc(CC(=O)NCc5ccccc5)c4)ncnc3c2)CC1 [Example 2.33]")
"500 to 1000 nM"
>>> result("COc1cc(OCC2CCN(C)CC2)cc2ncnc(Oc3ccc(F)cc3Cl)c12 [Example 2.34]")
"< 500 nM"
>>> result("CN1CCN(CCOc2cc(OC3CCOCC3)c3c(Oc4ccc(F)cc4Cl)ncnc3c2)CC1 [Example 3]")
"500 to 1000 nM"
>>> result("COCCOc1cc(OCCN2CCN(C)CC2)cc2ncnc(Sc3ccc(F)c(Br)c3)c12 [Example 4.5]")
"< 500 nM"
>>> result("OC[C@@H](O)COc1cc(OC2CCOCC2)c2c(Oc3ccc(F)cc3Cl)ncnc2c1 [Example 5]")
"500 to 1000 nM"
>>> result("COc1cc(OCC2CCN(C)CC2)cc2ncnc(Nc3nc(C(F)(F)F)cs3)c12 [Example 2.13]")
"> 10000 nM"
>>> result("Cc1cc(Nc2ncnc3cc(OCCCN4CCOCC4)cc(OC4CCOCC4)c23)on1 [Example 2.35]")
"> 10000 nM"
>>> result("Cc1csc(Nc2ncnc3cc(OCC4CCN(C)CC4)cc(OC4CCOCC4)c23)n1 [Example 2.42]")
"1000 to 10000 nM"
>>> result("CN1CCC(COc2cc(OC3CCOCC3)c3c(Nc4nncs4)ncnc3c2)CC1 [Example 2.38]")
"1000 to 10000 nM"
>>> result("COCCOc1cc(OCCN2CCN(C)CC2)cc2ncnc(Sc3cc(F)cc(F)c3)c12 [Example 4.3]")
"1000 to 10000 nM"
>>> result("CN1CCN(CCOc2cc(OC3CCOCC3)c3c(Nc4nccs4)ncnc3c2)CC1 [Example 2.14]")
"1000 to 10000 nM"
>>> result("CN1CCC(COc2cc(OC3CCOCC3)c3c(Sc4nncs4)ncnc3c2)CC1 [Example 2.47]")
"1000 to 10000 nM"
>>> result("COCCOc1cc(OCCN2CCN(C)CC2)cc2ncnc(Sc3ccc(F)cc3)c12 [Example 4.1]")
"500 to 1000 nM"

----------
experimental system: human Axl (Homo sapiens, UniProt P30530)
Construct: GST (N)
assay comment: Kinase enzymatic activity assay (33P-radiolabeled phosphate transfer), Axl
experimental context: recombinant human Axl (473-end), poly(4:1 glu:tyr) substrate, 30 minutes
pIC50: −log10 of the molar value.
Each record here notes measured pIC50.
measurement type: pIC50

>>> result("CC(C)Oc1ncnc2cc(OCC3CCN(C)CC3)cc(OC3CCOCC3)c12")
"> 6.30"
>>> result("FC(F)(F)c1csc(Nc2ncnc3cc(OCCN4CCCCC4)cc(OC4CCOCC4)c23)n1")
"> 6.30"
>>> result("COCCOc1cc(OCCN2CCN(C)CC2)cc2ncnc(Sc3ccc(Cl)cc3Cl)c12")
"5.00 to 6.00"
>>> result("Cc1cc(Nc2ncnc3cc(OCC4CCN(C)CC4)cc(OC4CCOCC4)c23)on1")
"> 6.30"
>>> result("CN1CCN(CCOc2cc(OC3CCOCC3)c3c(Oc4cccc(C(=O)NCc5ccccc5)c4)ncnc3c2)CC1")
"5.00 to 6.00"
>>> result("CN1CCC(CCOc2cc(OC3CCOCC3)c3c(Oc4ccc(F)cc4Cl)ncnc3c2)CC1")
"5.00 to 6.00"
>>> result("OC[C@@H](O)COc1cc(OC2CCOCC2)c2c(Oc3ccc(F)cc3Cl)ncnc2c1")
"5.00 to 6.00"
>>> result("FC(F)(F)c1nnc(Nc2ncnc3cc(OCCCN4CCOCC4)cc(OC4CCOCC4)c23)s1")
"5.00 to 6.00"

----------
experimental system: human Axl (Homo sapiens, UniProt P30530)
Construct: GST (N)
assay comment: Kinase enzymatic activity assay (33P-radiolabeled phosphate transfer), Axl
experimental context: recombinant human Axl (473-end), poly(4:1 glu:tyr) substrate, 30 minutes
pIC50: −log10 of the molar value.
Each record here notes measured pIC50.
measurement type: pIC50

>>> result("CN(C)CCCOc1cc(OC2CCOCC2)c2c(Oc3ccc(F)cc3Cl)ncnc2c1")
"5.00 to 6.00"
>>> result("COc1cc(OCC2CCN(C)CC2)cc2ncnc(Nc3nc(C(F)(F)F)cs3)c12")
"> 6.30"
>>> result("Cc1csc(Sc2ncnc3cc(OCC4CCN(C)CC4)cc(OC4CCOCC4)c23)n1")
"> 6.30"
>>> result("CN1CCN(CCOc2cc(OC3CCOCC3)c3c(Nc4nccs4)ncnc3c2)CC1")
"> 6.30"
>>> result("CN(C)CCC1CCN(c2cc(OC3CCOCC3)c3c(Nc4nc(C(F)(F)F)cs4)ncnc3c2)CC1")
"> 6.30"
>>> result("Cc1cnc(Nc2ncnc3cc(OCC4CCN(C)CC4)cc(OC4CCOCC4)c23)s1")
"> 6.30"
>>> result("CN1CCC(COc2cc(OC3CCOCC3)c3c(Nc4nccs4)ncnc3c2)CC1")
"> 6.30"
>>> result("Fc1ccc(Oc2ncnc3cc(OCCCN4CCOCC4)cc(OC4CCOCC4)c23)c(Cl)c1")
"6.00 to 6.30"
